The measurements presented in this section are drawn from ChEMBL document CHEMBL1146282.

# PROCEDURE SUMMARY: Inhibition of chymotrypsin-like activity of human 20S proteasome
ASSAY METRIC: pIC50
Value format note: pIC50 is -log10 of concentration (mol/L); just state the number.

1) COc1ccc(C[C@H](NC(=O)Cc2cccc(Oc3ccccc3)c2)C(=O)N[C@H](C(=O)N[C@@]2(CC(C)C)CNC2=O)C(C)C)c(OC)c1OC	5.89
2) COc1ccc(C[C@H](NC(=O)Cc2cccc(Oc3ccccc3)c2)C(=O)N[C@H](C(=O)N[C@@]2(Cc3ccccc3)CNC2=O)C(C)C)c(OC)c1OC	6.77

Field: next molecule
// query For the molecule shown here, CC(C)C[C@]1(NC(=O)[C@@H](NC(=O)[C@H](Cc2ccccc2)NC(=O)Cc2cccc(Oc3ccccc3)c2)C(C)C)CNC1=O , give the reported pIC50.
// result 4.42

====

The following molecules are shown together with reported pIC50 values.
# PROCEDURE SUMMARY: Inhibition of chymotrypsin-like activity of human 20S proteasome
Value format note: pIC50 is -log10 of concentration (mol/L); just state the number.

Example entries begin here.
1. COc1ccc(C[C@H](NC(=O)Cc2cccc(Oc3ccccc3)c2)C(=O)N[C@H](C(=O)N[C@]2(CC(C)C)CNC2=O)C(C)C)c(OC)c1OC	8.60
2. COc1ccc(C[C@H](NC(=O)Cc2cccc(Oc3ccccc3)c2)C(=O)N[C@H](C(=O)N[C@@]2(Cc3ccccc3)CNC2=O)C(C)(C)C)c(OC)c1OC	6.55
3. COc1ccc(C[C@H](NC(=O)Cc2cccc(Oc3ccccc3)c2)C(=O)N[C@H](C(=O)N[C@]2(Cc3ccccc3)CNC2=O)C(C)C)c(OC)c1OC	8.85

// query For the molecule shown here, COc1ccc(C[C@H](NC(=O)Cc2cccc(Oc3ccccc3)c2)C(=O)N[C@@H](C(=O)N[C@@]2(Cc3ccccc3)CNC2=O)C(C)(C)C)c(OC)c1OC , give the reported pIC50.
// result 8.40

// query // next record COc1ccc(C[C@H](NC(=O)OCc2ccccc2)C(=O)N[C@H](C(=O)N[C@@]2(Cc3ccccc3)CNC2=O)C(C)C)c(OC)c1OC
// result 5.85

// query // next record COc1ccc(C[C@H](NC(=O)OCc2ccccc2)C(=O)N[C@H](C(=O)N[C@]2(Cc3ccccc3)CNC2=O)C(C)C)c(OC)c1OC
// result 8.30

// query // next record CC(C)C[C@@]1(NC(=O)[C@@H](NC(=O)[C@H](Cc2ccccc2)NC(=O)Cc2cccc(Oc3ccccc3)c2)C(C)C)CNC1=O
// result 7.70
